Biological target: human CRF receptor I (Homo sapiens)
Construct: expressed in transfected cells; host or cells: CHO-K1
Sequence (P34998 24-415): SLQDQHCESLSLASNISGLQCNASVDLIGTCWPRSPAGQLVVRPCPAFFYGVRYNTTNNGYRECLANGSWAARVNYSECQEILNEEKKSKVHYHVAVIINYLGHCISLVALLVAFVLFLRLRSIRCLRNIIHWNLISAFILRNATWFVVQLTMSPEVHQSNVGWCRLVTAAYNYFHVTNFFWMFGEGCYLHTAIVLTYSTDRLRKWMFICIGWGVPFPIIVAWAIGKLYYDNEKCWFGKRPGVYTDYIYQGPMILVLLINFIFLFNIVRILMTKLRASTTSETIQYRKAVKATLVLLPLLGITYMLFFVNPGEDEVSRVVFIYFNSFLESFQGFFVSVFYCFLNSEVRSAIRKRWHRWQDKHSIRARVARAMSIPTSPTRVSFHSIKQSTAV
Test: Binding assay (125I-CRF, membrane fraction)
Settings: 125I-CRF 0.25 nM; membrane fraction of CHO-K1 cells forcedly expressing human CRF receptor I; room temperature, 2 hours

compound: CCC(CC)c1cc(C)c2nc(-c3ccc(OC)cc3Cl)c(C)n2c1 [Example 7]
IC50, nM: 12
